Method notes: Approximate solubility of starting material at RT
Type: physicochemical
Assay context: organic solvent or mixture, NMP, RT

Compound | solubility
C[C@H](O)C(=O)C1=Nc2c(nc(N)[nH]c2=O)NC1 [Form A, sepiapterin] | > 48 mg/mL

====

Method notes: Approximate solubility of starting material at RT
Assay type: physicochemical
Assay context: organic solvent or mixture, IPAc, RT
Metric name: solubility

Compound | Metric name | Value
C[C@H](O)C(=O)C1=Nc2c(nc(N)[nH]c2=O)NC1 [Form A, sepiapterin] | solubility | < 2700 µg/mL

====

Method notes: Approximate solubility of starting material at RT
Assay type: physicochemical
Assay context: organic solvent or mixture, MIBK, RT

Compound | solubility
C[C@H](O)C(=O)C1=Nc2c(nc(N)[nH]c2=O)NC1 [Form A, sepiapterin] | < 2000 µg/mL
